Source: patent US7074789B2

# System Tested: Itk (Homo sapiens)
# Construct: Kinases are expressed as either kinase domains or full length constructs; made in house
# Sequence (Q08881 whole entry, species assumed, the tested form may be a part): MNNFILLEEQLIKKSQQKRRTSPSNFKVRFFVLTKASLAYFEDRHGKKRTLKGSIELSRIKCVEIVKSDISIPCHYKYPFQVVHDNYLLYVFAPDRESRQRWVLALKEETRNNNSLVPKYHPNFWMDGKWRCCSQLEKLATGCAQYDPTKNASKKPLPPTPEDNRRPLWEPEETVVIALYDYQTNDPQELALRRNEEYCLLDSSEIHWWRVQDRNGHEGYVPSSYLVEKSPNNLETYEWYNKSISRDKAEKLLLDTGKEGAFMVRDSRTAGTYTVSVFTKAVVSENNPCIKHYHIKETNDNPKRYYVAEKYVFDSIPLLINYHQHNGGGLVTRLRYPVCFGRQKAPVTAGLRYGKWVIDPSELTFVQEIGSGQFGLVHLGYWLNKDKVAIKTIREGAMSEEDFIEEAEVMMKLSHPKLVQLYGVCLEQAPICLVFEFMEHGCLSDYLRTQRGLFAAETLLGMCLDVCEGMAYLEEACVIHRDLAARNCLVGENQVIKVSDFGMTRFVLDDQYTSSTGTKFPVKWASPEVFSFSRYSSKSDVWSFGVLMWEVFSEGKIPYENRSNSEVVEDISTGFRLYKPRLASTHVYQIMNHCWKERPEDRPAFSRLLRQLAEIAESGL
# Procedure Details: Kinase inhibition assay (33P transfer), Itk
# Type: biochemical
# Stated Conditions: read-out: Itk-1
pIC50: −log10 of the molar value.
Recorded pIC50, one value per entry.

Example compounds with recorded pIC50:
O=c1[nH]c2ccccc2n1-c1ncnc(Nc2ccccc2Cl)n1 ... < 4.88
CCCN(CC1CC1)c1ncnc(Nc2cc(OC)c(OC)c(OC)c2)n1 ... 4.92 to 5.03
COc1ccc(Nc2ncccc2-c2ncnc(Nc3cc(OC)c(OC)c(OC)c3)n2)c(C)c1 ... < 5.02
CC(=O)N1CCc2cc(Nc3ncnc(N4CCCc5cc(C)ccc54)n3)ccc21 ... < 4.95
Cc1ccc2c(c1)CCCN2c1ncnc(NCC2CCCO2)n1 (stereo not shown) ... < 4.86
CC1CCc2ccccc2N1c1ncnc(N2c3ccccc3CCC2C)n1 (stereo not shown) ... < 4.92

# input for lookup
Incoming: # lookup: pIC50 of COc1ccc(CNc2nc3ccccc3n2-c2ncnc(Nc3cccc(CC(=O)O)c3)n2)cc1
Outgoing: < 5.03
